Where do these numbers come from? They come from ChEMBL document CHEMBL3301361.

assay.remarks: physchem
experimental.parameters: octan-1-ol/water, pH 7.4, LogD7.4
yes (1) means recorded logD is 1 or above; no (0) means it is below 1.

See these solved cases before continuing.
Cc1ccc(-c2[nH]cnc2C)cc1NC(=O)c1ccc(OCc2ccccn2)cc1    yes (1)
Cc1c(CCC(=O)O)c(=O)oc2cc(O)ccc12    no (0)
O=CN(O)C1(CS(=O)(=O)N2CCN(c3ccc(F)cc3)CC2)CCC1    yes (1)

Could you now consider this next molecule?
Problem: Test whether the molecule `Cc1c[nH]c(-c2cc(NC(=O)c3ccc(C(F)(F)F)nc3C)ccc2Cl)n1` records logD of 1 or higher.
Solution: yes (1)

----------
assay.remarks: in vitro
experimental.parameters: human, microsomes
microsomal CLint values, listed per item
Respond with the bare value in µL/min/mg.

Please review the following examples before continuing.
O=C(NCC1CCCCC1)c1cc(-n2ncc(=O)[nH]c2=O)ccc1Cl    8.5
CC(C(=O)OC1CC[N+](C)(C)CC1)(c1ccccc1)N1CCC(F)(F)CC1 (stereo not given)    41
Cc1ccc(S(=O)(=O)Nc2c(C(=O)N[C@@H](C)C(C)(C)C)c(C)nn2C2CCC2)cc1    11

Problem: # lookup: microsomal CLint of `CCN(Cc1cc(C(F)(F)F)ccc1-c1cc(CC(=O)O)ccc1OC)C(=O)NCc1ccccc1`
Solution: 67.6

----------
assay.remarks: physchem
experimental.parameters: octan-1-ol/water, pH 7.4, LogD7.4
Assign a class from recorded logD; defined classes: bottom: < 1; middle: ≥ 1 and < 3; top: ≥ 3

See these solved cases before continuing.
NC(=O)N1c2ccccc2C[C@H](O)c2ccccc21 [ESLICARBAZEPINE]    bottom
CSc1ncccc1C(=O)Nc1nccs1    middle

Problem: Class? Entry: `COc1cc(OC)c(S(=O)(=O)N(C)c2ccccc2)cc1NC(C)=O`
Solution: middle

Problem: Class? Entry: `CCC[C@@H](CNC(=O)c1nc(Cl)c(N)nc1N)[N+](C)(C)CCCc1ccc(OC)cc1`
Solution: bottom

Problem: Class? Entry: `Cc1sc2ncnc(SCC(=O)N3CCN(C(=O)c4ccco4)CC3)c2c1C`
Solution: middle

Problem: Class? Entry: `N#Cc1ccc(-c2csc(Nc3ccc(O)cc3)n2)cc1`
Solution: top

Problem: Class? Entry: `COc1ccccc1-c1nnc(N)[nH]1`
Solution: bottom

Problem: Class? Entry: `COc1cc(F)ccc1-c1cncc(CNC2CCC2)n1`
Solution: middle

Problem: Class? Entry: `O=C(NCC12CC3CC(CC(C3)C1)C2)c1cc(OC2CCNCC2)ncc1Cl`
Solution: middle

----------
assay.remarks: in vitro
experimental.parameters: human, plasma, PPB
Y means recorded fraction unbound at 5 h is 0.02 or above; N means it is below 0.02.

C[C@H](Nc1ncc(Cl)c(Nc2cc(C3CC3)[nH]n2)n1)c1ncc(F)cn1    Y
O=C(CSc1nc2c(c(=O)n1-c1ccccc1)SCC2)Nc1ncc(-c2ccccc2)s1    N
COc1cc(NC(C)CCCN)c2ncccc2c1 (configuration not stated)    Y
CCOc1cc(CC(=O)N[C@@H](CC(C)C)c2ccccc2N2CCCCC2)ccc1C(=O)O [REPAGLINIDE]    N
N#Cc1cc(S(=O)(=O)Nc2ncc(Cl)s2)ccc1Oc1ccc(Cl)cc1-c1ccnn1C1CNC1    N
CCC[C@H](c1ccc(C(=O)O)c(Oc2cccc(Cl)c2)c1)N1CCC[C@H](n2cc(C)c(=O)[nH]c2=O)C1    N
COc1cc2nc(N3CCN(C(=O)C4CCCO4)CC3)nc(N)c2cc1OC (configuration not stated)    Y
Cc1cc(Nc2nc(N[C@@H](C)c3ncc(F)cn3)ncc2C)n[nH]1    Y

Problem: Test whether the compound `Cc1ccsc1C(=CCCN1CCC[C@@H](C(=O)O)C1)c1sccc1C` records fraction unbound at 5 h of 0.02 or higher.
Solution: Y

Problem: Test whether the compound `CCC(CC)NC(=O)c1c(C)nn(-c2ccccc2)c1NS(=O)(=O)c1ccc(C)cc1` records fraction unbound at 5 h of 0.02 or higher.
Solution: N

Problem: Test whether the compound `O=C(CO)N1CCC(c2[nH]nc(-c3ccc(Cl)cc3F)c2-c2ccncn2)CC1` records fraction unbound at 5 h of 0.02 or higher.
Solution: Y

----------
assay.remarks: in vitro
experimental.parameters: human, microsomes
True means recorded microsomal CLint is 60 µL/min/mg or above; False means it is below 60 µL/min/mg.

COc1ccc(CNC(=O)CSc2nc3cccnc3s2)cc1    True

Could you now consider this next compound?
Problem: Test whether the compound `C[C@H]1C[C@@H](NS(=O)(=O)c2cc(Br)ccc2Br)CN1C#N` records microsomal CLint of 60 µL/min/mg or higher.
Solution: False

----------
assay.remarks: in vitro
experimental.parameters: hepatocytes
hepatocyte CLint values, listed per item
Respond with the bare value in µL/min/1e6 cells.

Please review the following examples before continuing.
O=C(NCC12CC3CC(CC(C3)C1)C2)c1ccnc(N2CCNCC2)c1Cl    7.2
O=C(NCC12CC3CC(CC(C3)C1)C2)c1c(Cl)ccc2nc(N3CCC[C@H](NCCc4nnn[nH]4)C3)ccc12    13
O=c1c2sccc2n(CC2COc3ccccc3O2)c(=O)n1O (centres undefined)    14.8
Cc1nn(-c2ccc(F)cc2)c(NS(=O)(=O)c2ccc(C#N)cc2)c1C(=O)N[C@@H](C)C(C)(C)C    6
Cn1c(-c2ccccc2C(F)(F)F)nnc1C12CCC(c3noc(-c4ccc(F)cc4)n3)(CC1)CC2    7.94

Problem: # lookup: hepatocyte CLint of `O=C(Nc1ccc(Cl)c(S(=O)(=O)N2CCNCC2)c1O)Nc1cccc(F)c1Cl`
Solution: 41.4

Problem: # lookup: hepatocyte CLint of CC1=C(C)C(=O)C(C(CCCCCC(=O)O)c2ccccc2)=C(C)C1=O (centres undefined)
Solution: 85

Problem: # lookup: hepatocyte CLint of `N#CC1(NC(=O)[C@@H]2CCCC[C@H]2C(=O)N2CCc3[nH]c4ccc(F)cc4c3C2)CC1`
Solution: 41.4

Problem: # lookup: hepatocyte CLint of `COc1ccc(CNC(=O)Nc2ncc([N+](=O)[O-])s2)cc1`
Solution: 91

Problem: # lookup: hepatocyte CLint of `Cc1ccc(S(=O)(=O)Nc2c(C(=O)NCC(C)(C)C)c(C)nn2-c2ccccc2)cc1`
Solution: 18

Problem: # lookup: hepatocyte CLint of `COCCNc1nc(NCc2ccccc2F)c2sccc2n1`
Solution: 148

Problem: # lookup: hepatocyte CLint of `C[C@@](C(=O)O[C@H]1C[N+]2(CCCOc3ccc(F)cc3)CCC1CC2)(c1ccccc1)N1CCCCC1`
Solution: 66

Problem: # lookup: hepatocyte CLint of `Cc1ccc(S(=O)(=O)Nc2c(C(=O)N(C)C3CCCCC3)c(C)nn2-c2ccccc2)cc1`
Solution: 21

Problem: # lookup: hepatocyte CLint of `N#Cc1ccc2ccc(=O)n(CCN3CC[C@@H](NCc4ccc5c(n4)NC(=O)CO5)[C@@H](F)C3)c2c1`
Solution: 16.6

Problem: # lookup: hepatocyte CLint of `COc1cc2nnc(C(N)=O)c(Nc3ccc(F)cc3F)c2cc1N1CCN(C)CC1`
Solution: 16

----------
fraction unbound at 5 h values, listed per item
assay.remarks: in vitro
experimental.parameters: SD, HW or BN, rat, plasma
Would you mind answering with just the numeric figure?

Please review the following examples before continuing.
COc1ccccc1Oc1c(NS(=O)(=O)c2ccc(C(C)(C)C)cc2)nc(-c2ncccn2)nc1OCCO [BOSENTAN]    0.0122
CC(C)Oc1cc(Nc2nc(N[C@@H](C)c3ccc(F)cn3)nc(OC(CO)CO)c2Cl)n[nH]1    0.173
C[C@@H]1CN(Cc2nnc(-c3cc(-c4cccc5[nH]ccc45)cc4[nH]ncc34)o2)C[C@H](C)O1    0.0313

Now look at this one.
Problem: # lookup: fraction unbound at 5 h of `CC(C)(C)[C@@H](O)C(=O)N1CCC[C@H]1C(=O)NCc1cc(Cl)ccc1CN`
Solution: 0.5

----------
assay.remarks: physchem
experimental.parameters: octan-1-ol/water, pH 7.4, LogD7.4
Assign a class from recorded logD; defined classes: lower (below 2), middle (2 to below 3), upper (3 or more)

See these solved cases before continuing.
Oc1ccc2nc(-c3ccccc3)sc2c1    upper
Cc1ccc(S(=O)(=O)Nc2c(C(=O)NCc3ccccc3)cnn2-c2ccccc2)cc1    lower
Cc1cc(N2CCC[C@@H]2C(=O)NCCc2ccc3c(c2)OCO3)nc(-n2ccnc2)n1    middle
Nc1nc(N)c(C(=O)Nc2ccccn2)nc1Cl    middle
N[C@H]1CCN(c2c(Cl)cccc2/C=C2\SC(=O)NC2=O)C1    lower
CCOC(=O)c1cc(O)c(-c2ccccc2)nn1    lower
COc1ccnc(CCc2nc3c(C)ccnc3[nH]2)c1    middle
COc1cc(F)ccc1-c1cncc(CNC(=O)C2CCC2)c1    upper
O=C1c2ccc(O)cc2C(=O)N1c1ccc(O)cc1F    middle
N#CCNC(=O)c1ccc(-c2ccnc(Nc3ccc(N4CCOCC4)cc3)n2)cc1    middle

Could you now consider this next compound?
Problem: Class? Entry: `COc1ccc(-c2cc(O)c3cc(Cl)ccc3n2)cc1`
Solution: middle
